Target: COX-2
Experiment: Evaluation of COX-2 activity in vitro (PGE2 ELISA, recombinant enzyme)
Settings: arachidonic acid 10 μM, pH 8.0, pre-incubation 10-20 minutes
Description: The COX-2 inhibition activity of the compounds of this invention illustrated in the Examples was determined by the following methods. a. Preparation of recombinant COX baculoviruses Recombinant COX-1 and COX-2 were prepared as scribed by Gierse et al, [J. Biochem., 305, 479-84 (1995)]. […] COX activity was assayed as PGE2 formed/μg protein/time using an ELISA to detect the prostaglandin released. […] The PGE2 formed was measured by standard ELISA technology (Cayman Chemical).
endpoint: IC50

# count of solved cases: 3
Problem: Returns the measured IC50 for the input compound. Input: CS(=O)(=O)c1ccc(-c2c(-c3ccccc3)noc2CC(=O)O)cc1
Result: > 100000 nM

Problem: Likewise for Cc1noc(-c2ccc(S(C)(=O)=O)cc2)c1-c1ccccc1 ?
Result: 5300 nM

Problem: Also, NS(=O)(=O)c1ccc(-c2c(CO)noc2-c2ccccc2)cc1 please.
Result: 79000 nM

Next:
Problem: Any idea what IC50 was measured for NS(=O)(=O)c1ccc(-c2c(-c3ccccc3)noc2Cl)cc1 ?
Result: < 100 nM

Problem: Request: NS(=O)(=O)c1ccc(-c2c(-c3ccccc3)noc2Cc2ccc(Cl)cc2)cc1
Result: < 100 nM

Problem: How about this compound: Cc1ccc(-c2noc(C)c2-c2ccc(S(N)(=O)=O)cc2)cc1F
Result: < 100 nM

Problem: Moving on to CCc1onc(-c2ccccc2)c1-c1ccc(S(N)(=O)=O)cc1
Result: < 100 nM

Problem: Request: CS(=O)(=O)c1ccc(-c2c(-c3ccccc3)noc2C(F)F)cc1
Result: < 100 nM

Problem: Would you mind doing CC(C)c1onc(-c2ccccc2)c1-c1ccc(S(N)(=O)=O)cc1 as well?
Result: < 100 nM

Problem: Follow-up entry: CC(C)(C)Cc1onc(-c2ccccc2)c1-c1ccc(S(N)(=O)=O)cc1
Result: < 100 nM

Problem: And for CSc1onc(-c2ccccc2)c1-c1ccc(S(N)(=O)=O)cc1 ?
Result: < 100 nM

Problem: Record: Cc1noc(-c2cccc(Cl)c2)c1-c1ccc(S(N)(=O)=O)cc1
Result: 8400 nM

Problem: How about this compound: C[S+]([O-])c1onc(-c2ccccc2)c1-c1ccc(S(N)(=O)=O)cc1 (stereo not shown)
Result: < 100 nM

Problem: Now give it for NS(=O)(=O)c1ccc(-c2c(-c3ccccc3)noc2CCl)cc1 too.
Result: < 100 nM

Problem: What would you report for Cc1ccc(-c2noc(C)c2-c2ccc(S(N)(=O)=O)cc2)cc1Cl ?
Result: < 100 nM

Problem: And then NS(=O)(=O)c1ccc(-c2c(-c3ccccc3)noc2CC2CCCCC2)cc1 , what is it?
Result: < 100 nM

Origin of measurements: patent US5859257A
